Assay: Reducing power activity assay (ferricyanide reduction, absorbance at 700 nm)
Type: biochemical
Details: regression line over 1-100 μM; sodium phosphate buffer pH 6.6; n=3; read-out: EC50 for reducing power (mean±std. dev.)
Description: The determination of reducing power was performed as described by Yen and Der (J. Am. Oil Chem. Soc. 1993, 70, 383). […] The absorbance was read at 700 nm on a Bio-Rad microplate reader (Bio-Rad, Hercules, Calif.). The increase in absorbance indicates increase in reducing power. […]
READOUT_TYPE: EC50 (µM)

{"COMPOUND": "O=C1O[C@H]([C@@H](O)CO)C(O)=C1O [ascorbic acid, reference compound]", "RECORDED_MEASUREMENT": 1130}
{"COMPOUND": "COc1cc(C[C@@H](CO[C@@H]2O[C@H](CO)[C@@H](O)[C@H](O)[C@H]2O)[C@H](CO[C@@H]2O[C@H](CO)[C@@H](O)[C@H](O)[C@H]2O)Cc2ccc(O)c(OC)c2)ccc1O [synthetic (R,R)-SDG-2, (R,R)-secoisolariciresinol diglucoside]", "RECORDED_MEASUREMENT": 332}
{"COMPOUND": "COc1cc(C[C@H](CO[C@@H]2O[C@H](CO)[C@@H](O)[C@H](O)[C@H]2O)[C@@H](CO[C@@H]2O[C@H](CO)[C@@H](O)[C@H](O)[C@H]2O)Cc2ccc(O)c(OC)c2)ccc1O [synthetic (S,S)-SDG-1, (S,S)-secoisolariciresinol diglucoside]", "RECORDED_MEASUREMENT": 292}

[a] COc1cc(C[C@H](CO[C@@H]2O[C@H](CO)[C@@H](O)[C@H](O)[C@H]2O)[C@@H](CO[C@@H]2O[C@H](CO)[C@@H](O)[C@H](O)[C@H]2O)Cc2ccc(O)c(OC)c2)ccc1O [natural (S,S)-SDG-1, (S,S)-secoisolariciresinol diglucoside]
[b] Cc1c(C)c2c(c(C)c1O)CC[C@@](C)(CCC[C@H](C)CCC[C@H](C)CCCC(C)C)O2 [α-tocopherol, reference compound]
Prompt: Among a and b , which shows a numerically higher EC50 result? Let me know the label of the one you choose.
Completion: b
(b: 945 µM, a: 275 µM)
